test system: T1, human MERMUC bait-2 protein (C-terminal 123 amino acids of human MERMUC fused to GAL4-DB) (yeast; human)
T1 construct: also called MERMUC bait protein; fusion protein A
assay details: yeast two-hybrid (growth on SD/-Leu,-Trp,-His and SD/-Leu,-Trp,-Ade)
quantity measured: binding result

binder: c-Met prey protein B (amino acids 1013-1083 of SEQ ID NO: 4) fused to GAL4-AD (other, not shown: large carriers, also called prey DNA B) WHPKAEMRPSFSELVSRISAIFSTFIGEHYVHVNATYVNVKCVAPYPSLLSSEDNADDEVDTRPASFWETS
result: binds
//
binder: c-Met prey protein C (amino acids 1023-1083 of SEQ ID NO: 4) fused to GAL4-AD (other, not shown: large carriers, also called prey DNA C) FSELVSRISAIFSTFIGEHYVHVNATYVNVKCVAPYPSLLSSEDNADDEVDTRPASFWETS
result: no binding
//
binder: c-Met prey protein G (amino acids 993-1043 of SEQ ID NO: 4) fused to GAL4-AD (other, not shown: large carriers, also called prey DNA G) RRLLQPEYCPDPLYEVMLKCWHPKAEMRPSFSELVSRISAIFSTFIGEHYV
result: no binding
//
binder: c-Met prey protein A (amino acids 1003-1083 of SEQ ID NO: 4) fused to GAL4-AD (other, not shown: large carriers, also called prey DNA A) DPLYEVMLKCWHPKAEMRPSFSELVSRISAIFSTFIGEHYVHVNATYVNVKCVAPYPSLLSSEDNADDEVDTRPASFWETS
result: binds

This collection of values is drawn from patent US20050113284A1.
